# experimental-target: UniProtKB Q8ILY1
# method-summary: Fluorescence-based high-throughput DNA polymerase assay (molecular beacon), primary screen and dose-response
# Type: biochemical
# test-context: DRC-2, 5', concentration 2.5 (unit not given)
% inhibition Apo pol 5' values for the molecules below.

- molecule: "NS(=O)(=O)c1ccc(NC(=O)c2ccc(N3C(=O)CCC3=O)cc2)cc1"
  experimental-target: "UniProtKB Q8ILY1"
  % inhibition Apo pol 5': "8%"
- molecule: "CCN1C(=O)C(=Cc2cccc(OC)c2O)SC1=S"
  experimental-target: "UniProtKB Q8ILY1"
  % inhibition Apo pol 5': "8%"
- molecule: "O=c1[nH]c2ccc(Br)cc2c(-c2ccccc2)c1C1=NNC(c2ccco2)C1 (stereo not shown)"
  experimental-target: "UniProtKB Q8ILY1"
  % inhibition Apo pol 5': "15%"
- molecule: "COc1cc(NC(=O)c2ccccc2)c(OC)cc1NC(=O)Cc1cccs1"
  experimental-target: "UniProtKB Q8ILY1"
  % inhibition Apo pol 5': "25%"
- molecule: "Oc1cccc2ccc(/C=C/c3ccc4c(c3)OCO4)nc12"
  experimental-target: "UniProtKB Q8ILY1"
  % inhibition Apo pol 5': "14%"
- molecule: "O=C(O)c1ccc(-c2nc3cc(-c4ccc5nc(-c6ccc(C(=O)O)cc6)[nH]c5c4)ccc3[nH]2)cc1"
  experimental-target: "UniProtKB Q8ILY1"
  % inhibition Apo pol 5': "30%"
- molecule: "COCCN(CCOC)Cc1c(O)ccc2c1OC(=Cc1cc(Br)ccc1OC)C2=O"
  experimental-target: "UniProtKB Q8ILY1"
  % inhibition Apo pol 5': "10%"

====

Measured % inhibition ApPOL 90' 80 of individual entries
# experimental-target: P. falciparum apicoplast DNA polymerase (Pf-apPOL) (Plasmodium falciparum)
# Sequence (Q8ILY1 entry or part of it): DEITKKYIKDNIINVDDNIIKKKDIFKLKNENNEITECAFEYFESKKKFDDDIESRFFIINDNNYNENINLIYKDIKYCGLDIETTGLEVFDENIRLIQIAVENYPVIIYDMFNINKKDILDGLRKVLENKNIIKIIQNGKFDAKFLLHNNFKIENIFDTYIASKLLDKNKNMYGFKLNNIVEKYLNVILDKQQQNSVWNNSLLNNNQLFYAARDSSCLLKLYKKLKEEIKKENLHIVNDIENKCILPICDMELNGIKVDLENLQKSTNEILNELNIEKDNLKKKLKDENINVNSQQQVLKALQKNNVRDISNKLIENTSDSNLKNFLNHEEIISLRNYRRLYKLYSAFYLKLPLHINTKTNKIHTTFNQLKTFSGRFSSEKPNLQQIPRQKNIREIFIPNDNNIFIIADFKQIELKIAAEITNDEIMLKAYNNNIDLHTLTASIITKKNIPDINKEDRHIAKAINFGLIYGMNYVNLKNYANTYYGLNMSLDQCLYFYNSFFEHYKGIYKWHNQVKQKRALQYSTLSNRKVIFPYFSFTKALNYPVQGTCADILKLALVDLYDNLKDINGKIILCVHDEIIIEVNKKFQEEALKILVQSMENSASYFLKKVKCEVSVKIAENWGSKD
# method-summary: Fluorescence-based high-throughput DNA polymerase assay (molecular beacon), primary screen and dose-response
# Assay type: biochemical
# test-context: DRC-2; read at 90'; concentration 80

- compound: "C#CC(C=CC)OC(=O)c1ccccc1C(=O)O (centres unmarked) [Molecule 61, CC=CC(OC(=O)c1ccccc1C(=O)O)C#C]"
  experimental-target: "P. falciparum apicoplast DNA polymerase (Pf-apPOL) (Plasmodium falciparum)"
  % inhibition ApPOL 90' 80: "71%"
- compound: "O=C(c1ccccc1)N1CCc2c(nc3cc(-c4ccccc4)[nH]n3c2=O)C1 [Molecule 30]"
  experimental-target: "P. falciparum apicoplast DNA polymerase (Pf-apPOL) (Plasmodium falciparum)"
  % inhibition ApPOL 90' 80: "60%"
- compound: "CC(=O)OCC1=C(C(=O)[O-])N2C(=O)[C@@H](NC(=O)Cc3cccs3)[C@H]2SC1.[Na+] [Molecule 73]"
  experimental-target: "P. falciparum apicoplast DNA polymerase (Pf-apPOL) (Plasmodium falciparum)"
  % inhibition ApPOL 90' 80: "63%"
- compound: "Cc1ccc(N2CCC(NC(=O)Cc3cccs3)C2=O)cc1C (centres unmarked) [Molecule 57, O=C(NC1CCN(C1=O)c1ccc(c(c1)C)C)Cc1cccs1]"
  experimental-target: "P. falciparum apicoplast DNA polymerase (Pf-apPOL) (Plasmodium falciparum)"
  % inhibition ApPOL 90' 80: "48%"
- compound: "COc1ccccc1CC(=O)N1CCc2c(nc3cc(-c4ccccc4Cl)[nH]n3c2=O)C1 [Molecule 49]"
  experimental-target: "P. falciparum apicoplast DNA polymerase (Pf-apPOL) (Plasmodium falciparum)"
  % inhibition ApPOL 90' 80: "58%"
- compound: "CC(C)CC(C(=O)O)N1C(=O)C2C3C=CC(C2C1=O)C1C(=O)N(C(CC(C)C)C(=O)O)C(=O)C31 (centres unmarked) [KU0193449]"
  experimental-target: "P. falciparum apicoplast DNA polymerase (Pf-apPOL) (Plasmodium falciparum)"
  % inhibition ApPOL 90' 80: "51%"
- compound: "O=C(CCc1csc(NC(=O)Nc2ccccc2)n1)Nc1nc2ccccc2s1 [KU0177354]"
  experimental-target: "P. falciparum apicoplast DNA polymerase (Pf-apPOL) (Plasmodium falciparum)"
  % inhibition ApPOL 90' 80: "51%"
- compound: "N#Cc1c(O)nc(N2CCCCC2)nc1-c1ccc2c(c1)OCO2 [KU0083146]"
  experimental-target: "P. falciparum apicoplast DNA polymerase (Pf-apPOL) (Plasmodium falciparum)"
  % inhibition ApPOL 90' 80: "66%"
- compound: "O=C1CSC2=NC3=C(CCc4ccccc43)C(c3cccs3)N12 (centres unmarked) [Molecule 59, O=C1CSC2=NC3=C(C(N12)c1cccs1)CCc1c3cccc1]"
  experimental-target: "P. falciparum apicoplast DNA polymerase (Pf-apPOL) (Plasmodium falciparum)"
  % inhibition ApPOL 90' 80: "52%"
- compound: "CCCc1ccc(Oc2coc3cc(OC)ccc3c2=O)cc1 [KU0193249]"
  experimental-target: "P. falciparum apicoplast DNA polymerase (Pf-apPOL) (Plasmodium falciparum)"
  % inhibition ApPOL 90' 80: "51%"
- compound: "COc1ccc(/C=C/c2cc(C(=O)O)c3ccccc3n2)cc1 [Molecule 5, COc1ccc(cc1)/C=C/c1nc2ccccc2c(c1)C(=O)O]"
  experimental-target: "P. falciparum apicoplast DNA polymerase (Pf-apPOL) (Plasmodium falciparum)"
  % inhibition ApPOL 90' 80: "44%"
